This collection of values is drawn from PubChem BioAssay AID1963969.

system: 817829-284-R-J1-PDC multi-cell spheroid viability; experiment: Anticancer human tumor 817829-284-R-J1-PDC patient-derived colon adenocarcinoma cell line growth inhibition [PI3K]; conditions: second compound 0.01 µM; first compound 1 µM; stronger effect = lower value
viability, T/C less than 60% is met; viability, T/C greater than or equal to 60% is not met.

Example entries begin here.
[[record]]
compound = "C[C@@H](NC(=O)c1ncnc(N)c1Cl)c1ncc(C(=O)Nc2cc(C(F)(F)F)c(Cl)cn2)s1 + COc1c(OCCCN2CCOCC2)ccc2c3n(c(=NC(=O)c4cnc(N)nc4)nc12)CCN3"
category = "not met"

[[record]]
compound = "CC1(C)CCC(Nc2ncc(C(F)(F)F)c(-c3c[nH]c4c(P(C)(C)=O)c(C#N)ccc34)n2)CN1 (stereo unspecified) + CC(Nc1ccc2c(c1)OCCn1cc(N3C(=O)OCC3C(F)F)nc1-2)C(N)=O"
category = "met"

[[record]]
compound = "CC(C)NCC(C(=O)N1CCN(c2ncnc3c2C(C)CC3O)CC1)c1ccc(Cl)cc1 (stereo unspecified) + COc1c(OCCCN2CCOCC2)ccc2c3n(c(=NC(=O)c4cnc(N)nc4)nc12)CCN3"
category = "met"

[[record]]
compound = "CC1(C)CCC(CN2CCN(c3ccc(C(=O)NS(=O)(=O)c4ccc(NCC5CCOCC5)c([N+](=O)[O-])c4)c(Oc4cnc5[nH]ccc5c4)c3)CC2)=C(c2ccc(Cl)cc2)C1 + COc1c(OCCCN2CCOCC2)ccc2c3n(c(=NC(=O)c4cnc(N)nc4)nc12)CCN3"
category = "not met"

[[record]]
compound = "C#Cc1c(F)ccc2cc(O)cc(-c3ncc4c(N5CC6CCC(C5)N6)nc(OCC56CCCN5CC(F)C6)nc4c3F)c12 (stereo unspecified) + CC(Nc1ccc2c(c1)OCCn1cc(N3C(=O)OCC3C(F)F)nc1-2)C(N)=O"
category = "not met"

[[record]]
compound = "CCCS(=O)(=O)Nc1ccc(F)c(C(=O)c2c[nH]c3ncc(-c4ccc(Cl)cc4)cc23)c1F + CC(Nc1ccc2c(c1)OCCn1cc(N3C(=O)OCC3C(F)F)nc1-2)C(N)=O"
category = "met"

[[record]]
compound = "Cn1ncc(Cl)c1-c1cc(C(=O)NC(CN)Cc2cccc(F)c2)sc1Cl (stereo unspecified) + COc1c(OCCCN2CCOCC2)ccc2c3n(c(=NC(=O)c4cnc(N)nc4)nc12)CCN3"
category = "met"

[[record]]
compound = "CC(Cn1ccc(-c2ccc(C#N)c(Cl)c2)n1)NC(=O)c1cc(C(C)O)[nH]n1 (stereo unspecified) + COc1c(OCCCN2CCOCC2)ccc2c3n(c(=NC(=O)c4cnc(N)nc4)nc12)CCN3"
category = "met"


Task item: Lab note: confirm whether the reported viability, T/C for this compound is below 60%, equality not counting. compound: Cn1nccc1Nc1nccc(-c2ccn(C(CO)c3ccc(Cl)c(F)c3)c(=O)c2)n1 (stereo unspecified) + CC(Nc1ccc2c(c1)OCCn1cc(N3C(=O)OCC3C(F)F)nc1-2)C(N)=O
Reply: not met

Task item: Lab note: confirm whether the reported viability, T/C for this compound is below 60%, equality not counting. compound: CCN1CCN(Cc2ccc(Nc3ncc(F)c(-c4cc(F)c5nc(C)n(C(C)C)c5c4)n3)nc2)CC1 + COc1c(OCCCN2CCOCC2)ccc2c3n(c(=NC(=O)c4cnc(N)nc4)nc12)CCN3
Reply: met

Task item: Lab note: confirm whether the reported viability, T/C for this compound is below 60%, equality not counting. compound: CCCS(=O)(=O)Nc1ccc(F)c(C(=O)c2c[nH]c3ncc(-c4ccc(Cl)cc4)cc23)c1F + COc1c(OCCCN2CCOCC2)ccc2c3n(c(=NC(=O)c4cnc(N)nc4)nc12)CCN3
Reply: not met

====

system: 817829-284-R-J1-PDC multi-cell spheroid viability; assay: Anticancer human tumor 817829-284-R-J1-PDC cell line growth inhibition [PI3K]; details: second compound 0.01 µM; first compound 3.16 µM; stronger effect = lower value;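 also: spheroids exposed to agents for seven days before readout; percent of vehicle DMSO control viability which is 100%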
viability, T/C less than 70% is 1; viability, T/C greater than or equal to 70% is -1.

Example entries begin here.
[[record]]
compound = "Cn1nccc1Nc1nccc(-c2ccn(C(CO)c3ccc(Cl)c(F)c3)c(=O)c2)n1 (stereo not given) + CC(Nc1ccc2c(c1)OCCn1cc(N3C(=O)OCC3C(F)F)nc1-2)C(N)=O"
category = 1

[[record]]
compound = "CC(C)NCC(C(=O)N1CCN(c2ncnc3c2C(C)CC3O)CC1)c1ccc(Cl)cc1 (stereo not given) + COc1c(OCCCN2CCOCC2)ccc2c3n(c(=NC(=O)c4cnc(N)nc4)nc12)CCN3"
category = 1


Task item: Lab note: confirm whether the reported viability, T/C for this compound is below 70%, equality not counting. compound: CNC(=O)c1ccc(N2C(=S)N(c3ccc(C#N)c(C(F)(F)F)c3)C(=O)C2(C)C)cc1F + COc1c(OCCCN2CCOCC2)ccc2c3n(c(=NC(=O)c4cnc(N)nc4)nc12)CCN3
Reply: -1

====

test system: 817829-284-R-J1-PDC multi-cell spheroid viability; experiment: Anticancer human tumor 817829-284-R-J1-PDC cell line growth inhibition [PI3K]; settings: second compound 0.0316 µM; first compound 0.316 µM; stronger effect = lower value;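 also: spheroids exposed to agents for seven days before readout; percent of vehicle DMSO control viability which is 100%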
Listed molecules paired with reported viability, T/C
Write the number in % without appending the unit.

Solved cases (2 shown):
[[record]]
molecule = "CCCS(=O)(=O)Nc1ccc(F)c(C(=O)c2c[nH]c3ncc(-c4ccc(Cl)cc4)cc23)c1F + CC(Nc1ccc2c(c1)OCCn1cc(N3C(=O)OCC3C(F)F)nc1-2)C(N)=O"
assay_system = "817829-284-R-J1-PDC multi-cell spheroid viability"
readout_label = "viability, T/C"
quantitative_readout = 69.7

[[record]]
molecule = "C[C@@H](NC(=O)c1ncnc(N)c1Cl)c1ncc(C(=O)Nc2cc(C(F)(F)F)c(Cl)cn2)s1 + Cc1nc(NC(=O)N2CCCC2C(N)=O)sc1-c1ccnc(C(C)(C)C(F)(F)F)c1"
assay_system = "817829-284-R-J1-PDC multi-cell spheroid viability"
readout_label = "viability, T/C"
quantitative_readout = 71.9


Now let's try a different one.
Task item: Provide value of viability, T/C for this record tested with 817829-284-R-J1-PDC multi-cell spheroid viability: C#Cc1c(F)ccc2cc(O)cc(-c3ncc4c(N5CC6CCC(C5)N6)nc(OCC56CCCN5CC(F)C6)nc4c3F)c12 (stereo not drawn) + COc1c(OCCCN2CCOCC2)ccc2c3n(c(=NC(=O)c4cnc(N)nc4)nc12)CCN3
Reply: 53.7

====

tested on: 817829-284-R-J1-PDC multi-cell spheroid viability; assay: Anticancer human tumor 817829-284-R-J1-PDC cell line growth inhibition [PI3K]; conditions: second compound 0.0316 µM; first compound 0.1 µM; stronger effect = lower value;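 also: spheroids exposed to agents for seven days before readout; percent of vehicle DMSO control viability which is 100%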
viability, T/C less than 70% is True; viability, T/C greater than or equal to 70% is False.

Example entries begin here.
[[record]]
compound = "Cn1ncc(Cl)c1-c1cc(C(=O)NC(CN)Cc2cccc(F)c2)sc1Cl (stereo not given) + COc1c(OCCCN2CCOCC2)ccc2c3n(c(=NC(=O)c4cnc(N)nc4)nc12)CCN3"
category = "True"

[[record]]
compound = "CNC(=O)c1ccc(N2C(=S)N(c3ccc(C#N)c(C(F)(F)F)c3)C(=O)C2(C)C)cc1F + CC(Nc1ccc2c(c1)OCCn1cc(N3C(=O)OCC3C(F)F)nc1-2)C(N)=O"
category = "False"

[[record]]
compound = "CC(C)n1nc(-c2ccc3oc(N)nc3c2)c2c(N)ncnc21 + CC(Nc1ncnc2nc[nH]c12)c1cc2cccc(Cl)c2c(=O)n1-c1ccccc1"
category = "True"


Attention now turns to another entry.
Task item: Lab note: confirm whether the reported viability, T/C for this compound is below 70%, equality not counting. compound: Cn1ncnc1[C@H]1c2n[nH]c(=O)c3cc(F)cc(c23)N[C@@H]1c1ccc(F)cc1 + Cc1nc(NC(=O)N2CCCC2C(N)=O)sc1-c1ccnc(C(C)(C)C(F)(F)F)c1
Reply: True

====

Tested on: 817829-284-R-J1-PDC multi-cell spheroid viability
Assay: Anticancer human tumor 817829-284-R-J1-PDC cell line growth inhibition [PI3K];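 also: spheroids exposed to agents for seven days before readout; percent of vehicle DMSO control viability which is 100%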
Conditions: second compound 0.00316 µM; first compound 0.001 µM; stronger effect = lower value
Text: Combinatorial screen of targeted agents with the PI3K inhibitors inavolisib, alpelisib, duvelisib, and copanlisib in multi-cell type tumor spheroids A high-throughput screen of multi-cell type tumor spheroids was designed to identify active combinations of targeted small molecules and PI3K pathway inhibitors. […] Compounds. […] If the clinical Cmax for an agent had not been determined, the highest concentration tested was 10 microM. […]
Readout label: viability, T/C (%)
Write the number in % without appending the unit.

Solved cases (3 shown):
[[record]]
molecule = "CC(C)n1nc(-c2ccc3oc(N)nc3c2)c2c(N)ncnc21 + COc1c(OCCCN2CCOCC2)ccc2c3n(c(=NC(=O)c4cnc(N)nc4)nc12)CCN3"
unit_label = "%"
quantitative_readout = 83.7

[[record]]
molecule = "Cn1ncnc1[C@H]1c2n[nH]c(=O)c3cc(F)cc(c23)N[C@@H]1c1ccc(F)cc1 + CC(Nc1ccc2c(c1)OCCn1cc(N3C(=O)OCC3C(F)F)nc1-2)C(N)=O"
unit_label = "%"
quantitative_readout = 58.2

[[record]]
molecule = "CC(C)n1nc(-c2ccc3oc(N)nc3c2)c2c(N)ncnc21 + CC(Nc1ccc2c(c1)OCCn1cc(N3C(=O)OCC3C(F)F)nc1-2)C(N)=O"
unit_label = "%"
quantitative_readout = 51.6


Task item: Provide value of viability, T/C for this record tested with 817829-284-R-J1-PDC multi-cell spheroid viability: CC(=O)c1c(C)c2cnc(Nc3ccc(N4CCNCC4)cn3)nc2n(C2CCCC2)c1=O + CC(Nc1ccc2c(c1)OCCn1cc(N3C(=O)OCC3C(F)F)nc1-2)C(N)=O
Reply: 78.4

Task item: Provide value of viability, T/C for this record tested with 817829-284-R-J1-PDC multi-cell spheroid viability: CC(=O)c1c(C)c2cnc(Nc3ccc(N4CCNCC4)cn3)nc2n(C2CCCC2)c1=O + COc1c(OCCCN2CCOCC2)ccc2c3n(c(=NC(=O)c4cnc(N)nc4)nc12)CCN3
Reply: 85.2
